System: blackgrass
Experiment: Test B pre/postemergence blackgrass
Format: in vivo, Alopecurus myosuroides
Conditions: Rate 500 g/ha, Postemergence; scale 0 to 10, 0 no effect, 10 complete control
assay_readout: Blackgrass plant response rating
Quick one: just the number, no unit, thanks!

Known Blackgrass plant response rating results, listed for orientation:
QUERY: Report Blackgrass plant response rating, nothing else, for this molecule: CC(C)N(C(=O)n1oc(=O)n(CC(C)(C)C)c1=O)c1ccccc1
RESULT: 8

QUERY: Tell me its Blackgrass plant response rating given CC(C)N(C(=O)n1oc(=O)n(C2CC2)c1=O)c1ccc(F)cc1F as the entry.
RESULT: 9

QUERY: Please report Blackgrass plant response rating for the following molecule: Cc1cccc(C)c1-n1c(=O)on(C(=O)N(Cc2ccccc2)C(C)C)c1=O
RESULT: 0

QUERY: Annotate the molecule CC(=O)OCn1c(=O)on(C(=O)N(c2ccc(F)cc2)C(C)C)c1=O with its measured Blackgrass plant response rating.
RESULT: 0

QUERY: Report Blackgrass plant response rating, nothing else, for this molecule: CC(C)N(C(=O)n1oc(=O)n(Cc2ccccc2)c1=O)c1ccccc1
RESULT: 6

Attention now shifts to the item below.
QUERY: Write down Blackgrass plant response rating measured for item CCN(C(=O)n1oc(=O)n(C)c1=O)C1CCCCC1
RESULT: 0

* * *

Test system: rice
Assay: Test B flood test rice
Assay type: in vivo, Oryza sativa
Conditions: Rate 125 g/ha; Pre-emergence; flood test species; scale 0 to 10 where 0 is no effect and 10 is complete control
assay_readout: Rice plant response rating
Please respond with just the number, no unit label.

Reference set, count: 2
QUERY: Read off the recorded Rice plant response rating for CCN(C(=O)n1oc(=O)n(N(C)C)c1=O)C1CCCCC1
RESULT: 0

QUERY: Look up and report measured Rice plant response rating for this entry: CC(C)N(C(=O)n1oc(=O)n(C(C)(C)C)c1=O)c1ccccc1
RESULT: 0

---
QUERY: Dear colleague, please send me the reported Rice plant response rating for COc1nc(OC)nc(N(C(=O)n2oc(=O)n(-c3c(C)cccc3C)c2=O)C(C)C)n1 when you can.
RESULT: 0

QUERY: Specify measured Rice plant response rating for CCN(Cc1ccncc1)C(=O)n1oc(=O)n(C(C)C)c1=O .
RESULT: 0

QUERY: Give reported Rice plant response rating value for CC(Cl)=CCn1c(=O)on(C(=O)N(c2ccc(F)cc2)C(C)C)c1=O
RESULT: 0

QUERY: Fill in Rice plant response rating for record Cc1ccccc1-n1c(=O)on(C(=O)N(Cc2ccccc2)C(C)C)c1=O
RESULT: 0

QUERY: Could you please provide reported Rice plant response rating for CCc1cccc(CC)c1-n1c(=O)on(C(=O)N(c2ccccc2)C(C)C)c1=O ? Thanks!
RESULT: 0

* * *

# maps each entry to its Rape plant response rating
Tested on: rape
Experiment: Test B pre/postemergence rape
Type: in vivo, Brassica napus
Conditions: Rate 62 g/ha, Postemergence; scale of 0 to 10 where 0 is no effect and 10 is complete control
Answer field: number only, no words.

Recorded Rape plant response rating, per entry:
QUERY: Let me know recorded Rape plant response rating for CC(C)N(C(=O)n1oc(=O)n(C(C)C)c1=O)c1ccc(F)cc1F [Compound 109] , thanks.
RESULT: 3

QUERY: Identify Rape plant response rating associated with the molecule CC(C)N(C(=O)n1oc(=O)n(C2CCCC(C(F)(F)F)C2)c1=O)c1ccc(F)cc1 (centres unmarked) [Compound 184]
RESULT: 0

QUERY: Given CC(C)N(C(=O)n1oc(=O)n(CC2CCC2)c1=O)c1ccc(F)cc1 [Compound 403] , respond with its Rape plant response rating.
RESULT: 2

QUERY: Consider the molecule CC1CC1Cn1c(=O)on(C(=O)N(c2ccc(F)cc2)C(C)C)c1=O (centres unmarked) [Compound 402] . State its measured Rape plant response rating.
RESULT: 1

Others:
QUERY: Give a short answer stating reported Rape plant response rating for COc1nc(OC)nc(N(C(=O)n2oc(=O)n(-c3c(C)cccc3C)c2=O)C(C)C)n1 [Compound 180] .
RESULT: 0
